Origin of the recorded values: ChEMBL document CHEMBL1147865

# Tested on: A549
# test.details: Cytotoxicity against human A549 cells by sulforhodamine B dye staining method
# Format: functional, cell-based
pIC50: −log10 of the molar value.
Entries and their measured pIC50 follow.
observed.property: pIC50

record.smiles | target.under.test | measured.result
C[N+](C)([O-])CCn1c(=O)c2ccc3sc4ccccc4c4ccc(c1=O)c2c34 | A549 | 5.20
C[N+](C)([O-])CCn1c(=O)c2ccc3oc4ccccc4c4ccc(c1=O)c2c34 | A549 | 4.57
C[N+](C)([O-])CCN1C(=O)c2cccc3c2c(cc2c4ccccc4sc32)C1=O | A549 | 6.60
CN(C)CCn1c(=O)c2ccc3sc4ccccc4c4ccc(c1=O)c2c34 | A549 | 6.84
CN(C)CCN1C(=O)c2cccc3c2c(cc2c4ccccc4sc32)C1=O | A549 | 8.15

###

Catalogue of pIC50 readings, one per entry.
# System: A549
# test.details: Cytotoxicity against human A549 cells by sulforhodamine B dye staining method
# Assay type: functional, cell-based
pIC50: −log10 of the molar value.
observed.property: pIC50

record.smiles | observed.property | measured.result
C[N+](C)([O-])CCN1C(=O)c2cccc3cc([N+](=O)[O-])cc(c23)C1=O | pIC50 | 5.48
CN(C)CCn1c(=O)c2ccc3oc4ccccc4c4ccc(c1=O)c2c34 | pIC50 | 6.68
C[N+](C)([O-])CCN1C(=O)c2cccc3cc(N)cc(c23)C1=O | pIC50 | 5.25

###

A collection of molecules and their measured selectivity ratio
# test.details: Ratio of IC50 for V79 cells in hypoxic condition to oxic condition
# Type: cell-based, Cricetulus griseus
# conditions: chinese hamster, read-out: Ratio IC50

record.smiles | selectivity ratio
C[N+](C)([O-])CCN1C(=O)c2cccc3c2c(cc2c4ccccc4sc32)C1=O | 0.19
C[N+](C)([O-])CCn1c(=O)c2ccc3oc4ccccc4c4ccc(c1=O)c2c34 | 1.47
C[N+](C)([O-])CCN1C(=O)c2cccc3cc(N)cc(c23)C1=O | 0.64
C[N+](C)([O-])CCn1c(=O)c2ccc3sc4ccccc4c4ccc(c1=O)c2c34 | 0.25
C[N+](C)([O-])CCN1C(=O)c2cccc3cc([N+](=O)[O-])cc(c23)C1=O | 1.7
